# Test system: SF295 (central nervous system tumor)
ASSAY ENDPOINT: GI50 (nM)
Reply numerically in nM, unit not repeated.

COMPOUND: [2H]C([2H])([2H])Oc1cc(C(=O)Nc2cc3c(cc2Oc2cc(C)cc(C)c2)C(=O)N[C@@H](CC(=O)N2CCN(C)CC2)C(=O)N3)c(Br)c(OC([2H])([2H])[2H])c1OC([2H])([2H])[2H] [Compound 29]
ASSAY ENDPOINT: GI50
MEASURED RESULT: 93.8

Next item in the queue.
Enter reported GI50 observed with SF295 (central nervous system tumor) for [2H]C([2H])([2H])Oc1cc(C(=O)Nc2cc3c(cc2Oc2cc(C)cc(C)c2)C(=O)N[C@@H](CC(=O)N(C)OC)C(=O)N3)c(Br)c(OC([2H])([2H])[2H])c1OC([2H])([2H])[2H] [Compound 30]
11.6

* * *

# Tested on: SF295 (central nervous system tumor)
Reported GI50 values follow for various molecules

See these solved cases before continuing.
SMILES STR: [2H]C([2H])([2H])Oc1cc(C(=O)Nc2cc3c(cc2Oc2cc(C)cc(C)c2)C(=O)N[C@@H](CC(=O)N(OC)C([2H])([2H])[2H])C(=O)N3)c(Br)c(OC([2H])([2H])[2H])c1OC([2H])([2H])[2H]
MEASURED RESULT: < 5 nM
//
SMILES STR: [2H]C([2H])([2H])N1C(=O)c2cc(Oc3cc(C)cc(C)c3)c(NC(=O)c3cc(OC)c(OC)c(OC)c3Br)cc2NC(=O)[C@@H]1CC(=O)N(CC)CC
MEASURED RESULT: < 5 nM

Consider the additional molecule presented here.
GI50 lookup needed for [2H]C([2H])([2H])Oc1cc(C(=O)Nc2cc3c(cc2Oc2cc(C)cc(C)c2)C(=O)N(C)[C@@H](CC(=O)N(OC([2H])([2H])[2H])C([2H])([2H])[2H])C(=O)N3)c(Br)c(OC([2H])([2H])[2H])c1OC([2H])([2H])[2H] , thanks.
< 5 nM
